assay: protein stability index of a GFP-peptide fusion (yeast GPS) (PSI 1-4); higher = more stable; sorted into four equal gates, so the index is relative within each strain; conditions: pdr5∆
Recorded metric: protein stability index
Respond with the number and no other words.

Take a look at these entries with their results.
Record sequence: KIFIKDPKFVNSLLAKL [YML103C/NUP188]
protein stability index: 2.25
--
Record sequence: NVETYEQILQWVTEVLG [BRR2]
protein stability index: 1.75
--
Record sequence: SQRAQVVTMSVKSVNDP [RPC37]
protein stability index: 2.4
--
Record sequence: IFTCQIMNLITNEPCGA [RPN4]
protein stability index: 2.61

Documented protein stability index of KSMSILNSFVNDIFERI [HTB1] : 3.18

Documented protein stability index of YLGTKVELPYGAHGYSG [PRE1] : 2.38

Documented protein stability index of GRNRGRPNRRGPRNTEE [RPS2] : 3.24

Documented protein stability index of DDEPTTPAELVGKFLGY [FAS1] : 3.34

Documented protein stability index of MQHNPLAGKRGPKSGST [PGD1] : 2.74

Documented protein stability index of VRSFSKALDELKPEIEK [LRP1] : 3.39

Documented protein stability index of NNNNSNNHNMRNNSNNK [SWI1] : 2.95

Documented protein stability index of ADDADIEMKDVSSKPSK [MED1] : 3.29

Documented protein stability index of GISDDENDEEDIYMHDV [RRP4] : 3.31

Documented protein stability index of LRSRLQQQQQQQQQTSP [SNF5] : 2.95

Documented protein stability index of SNTSTSKMLDAASSQVS [SNF12] : 2.8

Documented protein stability index of LQKVENQTIKEAKDAII [YIL149C/MLP2] : 3.18

Documented protein stability index of SNGEFIPHIFYSLHQIR [CSE2] : 2.1

Documented protein stability index of IRQYALATAHIYLSRFL [SSN8] : 1.34

Documented protein stability index of MDIMEDFLRYINIKYLR [SNF2] : 1.37

Documented protein stability index of QLNEKLVGRLRKCETQK [YCS4] : 1.44
